Quick list: pIC50 per entry.
# SYSTEM NAME: Recombinant full length human OGA enzyme (Homo sapiens)
# Construct: Recombinant full length human OGA enzyme was purchased from Origene
# Sequence (O60502 1-916): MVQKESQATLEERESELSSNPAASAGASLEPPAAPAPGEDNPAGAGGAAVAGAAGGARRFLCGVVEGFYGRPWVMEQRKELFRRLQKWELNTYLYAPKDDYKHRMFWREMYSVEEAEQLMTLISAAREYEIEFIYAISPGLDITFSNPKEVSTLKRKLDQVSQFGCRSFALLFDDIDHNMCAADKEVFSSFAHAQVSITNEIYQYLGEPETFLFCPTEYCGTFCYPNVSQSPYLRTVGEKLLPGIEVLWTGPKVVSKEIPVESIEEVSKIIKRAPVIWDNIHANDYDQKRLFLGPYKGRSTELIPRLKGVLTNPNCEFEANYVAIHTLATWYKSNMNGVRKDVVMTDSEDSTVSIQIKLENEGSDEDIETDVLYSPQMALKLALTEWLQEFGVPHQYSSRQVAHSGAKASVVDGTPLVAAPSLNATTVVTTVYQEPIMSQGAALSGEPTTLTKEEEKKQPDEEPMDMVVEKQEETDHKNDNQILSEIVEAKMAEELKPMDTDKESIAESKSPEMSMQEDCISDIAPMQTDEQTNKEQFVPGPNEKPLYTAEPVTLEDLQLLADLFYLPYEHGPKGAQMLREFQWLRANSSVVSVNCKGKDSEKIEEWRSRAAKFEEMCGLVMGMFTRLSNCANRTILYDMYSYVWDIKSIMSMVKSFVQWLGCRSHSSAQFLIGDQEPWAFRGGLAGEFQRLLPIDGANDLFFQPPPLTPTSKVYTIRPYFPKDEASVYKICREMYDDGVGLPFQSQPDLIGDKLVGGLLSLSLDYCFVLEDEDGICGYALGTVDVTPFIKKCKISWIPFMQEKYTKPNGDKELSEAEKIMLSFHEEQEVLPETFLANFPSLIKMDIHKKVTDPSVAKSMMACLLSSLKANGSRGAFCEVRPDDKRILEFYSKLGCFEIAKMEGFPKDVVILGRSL
# TEST NAME: OGA enzyme inhibition biochemical assay
# RUN CONDITIONS: 1 nM OGA, 100 μM 4-MUGlcNAc (Km), pH 6.4, 90 minutes at room temperature, 10-point dose-response from 20 μM
# Procedure: N-(5-(((2S,4R)-4-([1,2,4]triazolo[4,3-a]pyrazin-3-yloxy)-2-methylpyrrolidin-1-yl)methyl)-4-fluorothiazol-2-yl)acetamide: The title compound was prepared in an analogous manner as Example 172 from 3-bromo-[1,2,4]triazolo[4,3-a]pyrazine. LCMS (ESI): [M+H] […] Recombinant full length human OGA enzyme was purchased from Origene. […] Reactions were incubated for 90 minutes at room temperature and quenched with 40 μl of 3M glycine, pH 10 and read on a Perkin Elmer Envision plate reader (Ex: 355 nm/Em: 460 nm). […]
pIC50: −log10 of the molar value.

A selection of reference data follows.
INSERT INTO results (smiles_data, experimental_result) VALUES
  ('CC(=O)Nc1ncc(CN2C[C@H](Oc3ccnc4ccoc34)C[C@@H]2C)s1', '> 9.00'),
  ('CC(=O)Nc1ncc(CN2C[C@H](Oc3nccn4ccnc34)C[C@@H]2C)s1', 8.28),
  ('CC(=O)Nc1nc(F)c(CN2C[C@H](Oc3ccn4nc(C)cc4n3)C[C@@H]2C)s1', '> 9.00'),
  ('CC(=O)Nc1ncc(CN2C[C@H](Oc3cccc4nccn34)C[C@@H]2C)s1', '> 9.00'),
  ('CC(=O)Nc1ncc(CN2C[C@H](Oc3cc(C(N)=O)nc4ccccc34)C[C@@H]2C)s1', 8.72);

# ---- query molecule ----
Input line: # return recorded pIC50 for entry `COc1ccc2ccc(O[C@@H]3C[C@H](C)N(Cc4cnc(NC(C)=O)s4)C3)nc2c1`
Output line: > 9.00
